Assay: gradient 5% acetonitrile 3 min, to 50% in 2 min, to 85% in 15 min, held 3 min, 100 µL/min
Settings: column: Zorbax Extend-C18 2.1 x 50 mm; eluents: water / acetonitrile, 0.1% formic acid
The entries below come with measured RP-LC retention time values attached.
Unit s implied. Number only.

Some compounds with recorded RP-LC retention time:
compound: O=C(COc1ccc(Cl)cc1)N1CC(n2cnnc2C2CC2)C1
reported: 675
//
compound: COc1ccc(-c2nnc(Cc3nc(-c4ccccc4F)no3)o2)cc1OC
reported: 848
//
compound: CN1C(=O)[C@H]2CN(Cc3ccccc3C#N)C[C@H]2C1=O
reported: 650
//
compound: COc1ccc(NC(=O)C2CCCN2S(=O)(=O)c2ccc3c(c2)CCCC(=O)N3)cc1OC (stereo not drawn)
reported: 688
//
compound: O=C(c1cccs1)N1CCN(c2nnc3ccc(Cl)cn23)CC1
reported: 691

Please list RP-LC retention time recorded for the compound O=C(NCCc1cccnc1)C1CN(S(=O)(=O)c2ccccc2)CC12CCCCC2 (stereo not drawn)
664

Please list RP-LC retention time recorded for the compound CS(=O)(=O)c1ccc(NC(=O)CSc2ccc(N3CCCC(C(=O)NC4CC4)C3)nn2)cc1 (stereo not drawn)
608

Please list RP-LC retention time recorded for the compound O=C(Nc1ccc2c(c1)OCCO2)C1CCCN(C(=O)c2cc(-c3ccncc3)n[nH]2)C1 (stereo not drawn)
584

Please list RP-LC retention time recorded for the compound Cc1ccc(-c2csc(NC3OC(=O)c4ccccc43)n2)cc1C (stereo not drawn)
808

Please list RP-LC retention time recorded for the compound Cc1cc(N2CCN(C(=O)c3cccc(N(C)C)c3)CC2)nc2nncn12
1010

###

The entries below come with measured RP-LC retention time values attached.
Assay: gradient 5% acetonitrile 3 min, to 50% in 2 min, to 85% in 15 min, held 3 min, 100 µL/min
Details: column: Zorbax Extend-C18 2.1 x 50 mm; eluents: water / acetonitrile, 0.1% formic acid
Form entry: enter the amount, then its unit.

Some compounds with recorded RP-LC retention time:
compound: Cc1ccc(S(=O)(=O)N2CC(=O)N(CCC(C)C)C(C)(C(=O)NCc3ccccc3)C2)cc1 (stereo not given)
RP-LC retention time: 1040 s
--
compound: CCC(=O)Nc1ccc(CCc2nc3ccc(C(=O)NCc4ccc(SC)cc4)cc3[nH]2)cc1
RP-LC retention time: 683 s
--
compound: O=C(NCc1ccccn1)C1CCN(S(=O)(=O)c2cc(C(=O)N3CCCC3)cs2)CC1
RP-LC retention time: 609 s
--
compound: COc1ccc(CNC(=O)C2CCN(c3ccc(SCc4ccccc4)nn3)CC2)cc1
RP-LC retention time: 742 s

Next compound, please.
Please list RP-LC retention time recorded for the compound O=C(Nc1c(F)cccc1F)N1CCc2nc(-c3ccc(Cl)cc3)ncc2C1
954 s

###

Assay: gradient 5% acetonitrile 3 min, to 50% in 2 min, to 85% in 15 min, held 3 min, 100 µL/min
Details: column: Zorbax Extend-C18 2.1 x 50 mm; eluents: water / acetonitrile, 0.1% formic acid
measured_parameter: RP-LC retention time

Some molecules with recorded RP-LC retention time:
molecule: O=C(NCc1ccc(F)cc1F)c1ccc2c(c1)nc1n2CCN(C2CCCCC2)C1=O
measured_parameter: RP-LC retention time
reported: 806 s
//
molecule: COc1ccc(N2CC(c3noc(-c4cc(F)cc(F)c4)n3)CC2=O)cc1OC (stereo not given)
measured_parameter: RP-LC retention time
reported: 899 s
//
molecule: CCOc1ccc(S(=O)(=O)N2CCC(C(=O)NCCCOC)CC2)cc1C
measured_parameter: RP-LC retention time
reported: 789 s
//
molecule: CCc1nc2cc(-c3noc(CNC(=O)Cc4ccc(Cl)cc4)n3)ccc2o1
measured_parameter: RP-LC retention time
reported: 882 s

Please list RP-LC retention time recorded for the molecule O=C(Cn1nc2c(c1NC(=O)c1cnccn1)CSC2)NCc1ccco1
664 s

###

The entries below come with measured RP-LC retention time values attached.
Assay: gradient 5% acetonitrile 3 min, to 50% in 2 min, to 85% in 15 min, held 3 min, 100 µL/min
Conditions: column: Zorbax Extend-C18 2.1 x 50 mm; eluents: water / acetonitrile, 0.1% formic acid
Unit s implied. Number only.

Some compounds with recorded RP-LC retention time:
compound: CCC1Oc2ccc(S(=O)(=O)N3CCC(C(=O)N4CCN(CC)CC4)CC3)cc2NC1=O (stereo not drawn)
measured_parameter: RP-LC retention time
reported: 573
//
compound: CCSc1nc2ccc(NS(=O)(=O)Cc3cc(C)ccc3C)cc2s1
measured_parameter: RP-LC retention time
reported: 1150
//
compound: CCc1nc2cc3c(cc2n1CC(=O)NC(C)c1ccc2c(c1)OCCCO2)OCCO3 (stereo not drawn)
measured_parameter: RP-LC retention time
reported: 628

Please list RP-LC retention time recorded for the compound Cc1ccc(-c2ncccc2CNS(=O)(=O)c2cc(F)ccc2C)cc1
738

Please list RP-LC retention time recorded for the compound CCOc1ccc(NC(=O)Cn2c(N3CCOCC3)nc3cc(C)n(C)c3c2=O)cc1
652

Please list RP-LC retention time recorded for the compound COc1cc2c(cc1OC)-c1cc(=Nc3c(C)cc(C)cc3C)n(C)c(=O)n1CC2
765

Please list RP-LC retention time recorded for the compound COc1ccccc1NC(=O)C1CCCN1S(=O)(=O)c1cc2c(cc1C)NC(=O)CO2 (stereo not drawn)
808

Please list RP-LC retention time recorded for the compound COc1nc2ccccc2nc1N1CCCC(C(=O)NCc2ccc(Cl)cc2)C1 (stereo not drawn)
1110

Please list RP-LC retention time recorded for the compound O=C(NCCn1nnc2cc(C(=O)N3CCCC3)ccc21)Nc1ccccc1
616

Please list RP-LC retention time recorded for the compound CCCCN1C(=O)CC(C(=O)OCC)=C1C
892

Please list RP-LC retention time recorded for the compound COC(=O)c1sc2ncccc2c1NC(=O)c1cccc(C)c1
972

Please list RP-LC retention time recorded for the compound CC(C)c1ccc(NC(=O)Cn2cnc3nc(N4CCC(C(=O)NC5CC5)CC4)sc3c2=O)cc1
748

Please list RP-LC retention time recorded for the compound CCCn1cc(CCNS(=O)(=O)c2ccc(C)c(Cl)c2)c2cccnc21
939

Please list RP-LC retention time recorded for the compound O=c1n(Cc2ccc(F)cc2)nc2c(-c3nc(-c4cccc(F)c4)no3)cccn12
971

Please list RP-LC retention time recorded for the compound CC1C(=O)NCCN1C(=O)c1cc(Cl)ccc1Cl (stereo not drawn)
612

Please list RP-LC retention time recorded for the compound COc1ccc(C2NC(c3ccc(OC)c(OC)c3)C(C)C(=O)C2C)cc1OC (stereo not drawn)
755

Please list RP-LC retention time recorded for the compound CCOC(=O)c1noc2nc(C)nc(Nc3cccc(Cl)c3)c12
1200

Please list RP-LC retention time recorded for the compound Brc1c(Br)c(Br)c2n[nH]nc2c1Br
1010

Please list RP-LC retention time recorded for the compound Fc1ccc(Cl)cc1CN1CC(COc2cccnc2)C2(CCOCC2)C1 (stereo not drawn)
566

Please list RP-LC retention time recorded for the compound COC(=O)C1=C(CN2CCOCC2)NC(=O)NC1c1ccccc1C (stereo not drawn)
590

###

Experiment: gradient 5% acetonitrile 3 min, to 50% in 2 min, to 85% in 15 min, held 3 min, 100 µL/min
Details: column: Zorbax Extend-C18 2.1 x 50 mm; eluents: water / acetonitrile, 0.1% formic acid
The label is condition met for RP-LC retention time below 1000 s and condition not met for RP-LC retention time equal to or exceeding 1000 s.

compound_structure: COc1ccc(-c2csc(Cc3nc(-c4ccccc4Cl)no3)n2)cc1
class_label: condition not met

Report whether reported RP-LC retention time is lower than 1000 s (strictly) for COc1ccc(OC)c(NC(=O)N2CCN(c3cc(-c4ccccc4)ncn3)CC2)c1
condition met

Report whether reported RP-LC retention time is lower than 1000 s (strictly) for Cc1cccc(C(=O)N2CCC3(CC2)NC(=O)c2ccc(F)cc2N3C)c1
condition met

Report whether reported RP-LC retention time is lower than 1000 s (strictly) for Cc1cn(C)c(CC(=O)NCc2ccc3c(c2)OCO3)c1C(=O)O
condition met

###

Assay: gradient 5% acetonitrile 3 min, to 50% in 2 min, to 85% in 15 min, held 3 min, 100 µL/min
Conditions: column: Zorbax Extend-C18 2.1 x 50 mm; eluents: water / acetonitrile, 0.1% formic acid
The label is MET for RP-LC retention time below 700 s and NOT MET for RP-LC retention time equal to or exceeding 700 s.

Known results for compounds:
compound: CCc1noc(C2(NC(=O)c3ccccc3Cl)CCCCC2)n1
class_label: NOT MET
--
compound: CC(=O)N1CCC2(CC1)C(=O)N(C)c1ccccc12
class_label: MET
--
compound: CC1CCN(C(=O)c2cc3c(s2)CCC(C(=O)O)C3)CC1 (stereo not given)
class_label: MET
--
compound: O=C(CCc1csc(NC(=O)Nc2ccccc2)n1)Nc1nc2ccccc2s1
class_label: NOT MET
--
compound: Cc1cccc(-n2ncc3c(N4CCN(CCO)CC4)ncnc32)c1
class_label: MET

Report whether reported RP-LC retention time is lower than 700 s (strictly) for Cc1c(C2CCN(C(=O)c3ccco3)CC2)noc1N
MET

Report whether reported RP-LC retention time is lower than 700 s (strictly) for Cc1cc(-c2csc(S(=O)(=O)NCCCN3CCN(Cc4ccccc4)CC3)c2)on1
MET

Report whether reported RP-LC retention time is lower than 700 s (strictly) for O=C(N[C@@H]1CN(c2ncccn2)C[C@H]1CO)C1(c2ccccc2)CC1
MET

Report whether reported RP-LC retention time is lower than 700 s (strictly) for CCSc1nnc(-c2nn(C)c3c2CN(C(=O)c2ccc(C)cc2)CC3)n1C
NOT MET

Report whether reported RP-LC retention time is lower than 700 s (strictly) for CCOC(=O)c1cc(C(=O)OCC)n(CC(=O)c2ccccc2)n1
NOT MET
